Target: T1, RANKL expressed on the surface of 293 cells (UniProt O14788 1-317, limits assumed)
T1 construct: whole, on cells; also called RANKL-transfected 293 cells; cells expressing RANKL
T1 sequence (looked up): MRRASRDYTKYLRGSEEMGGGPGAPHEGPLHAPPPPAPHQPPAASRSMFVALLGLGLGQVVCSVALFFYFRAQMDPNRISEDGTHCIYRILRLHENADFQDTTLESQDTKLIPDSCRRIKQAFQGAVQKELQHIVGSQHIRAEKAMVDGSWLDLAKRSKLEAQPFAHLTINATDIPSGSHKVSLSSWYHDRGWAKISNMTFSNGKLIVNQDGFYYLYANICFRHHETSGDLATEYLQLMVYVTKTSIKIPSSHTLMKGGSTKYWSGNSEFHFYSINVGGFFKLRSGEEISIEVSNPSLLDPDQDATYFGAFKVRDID
Assay: flow cytometry (MFI) on RANKL-transfected 293 cells
parameter: EC50 (µg/mL)
Write the answer as a number in µg/mL, unit excluded.

For orientation, consider the following solved cases.
binder	parameter	units	experimental value
clone 130 rabbit anti-RANKL antibody (antibody, V domains shown) VH: QSVEESGGRLVTPGTPLTLTCTVSGFSLSSGVVSWVRQAPGKGLEWIGYAWSGGATYYASWAKGRFTISKSSTTVDLKITSPTTADTATYFCARGYNGMDPWGPGTLVTVSS VL: DMTQTPASVEVAVGGTVTIKCQASQNIGSNLAWYQQKPGQPPKLLIYKASTLASGVPSRFRGSGSGTEFTLAISDLECADAATYYCQQGYTTKDLVNPFGGGTEVVVK	EC50	µg/mL	0.21
clone 210 rabbit anti-RANKL antibody (antibody, V domains shown) VH: QSVKESGGGLVTPGGTLTLTCTASGFSLSNNAMSWVRQAPGKGLEWIGYIYPGGSPYYANWAKGRFTISRTSTTVDLKMTSLTTEDTATYFCARHVSDGGWYLYIWGPGTLVTVSL VL: DMIQTPASVEVAVGGTVTINCQASQSIGSNLAWYQQKPGQPPKLLIYGASTLASGVPSRFKGSGSGTQFTFTISDVECTAAATYYCQQAYSISNVDNAFGGGTEVVVK	EC50	µg/mL	0.292
clone 23 rabbit anti-RANKL antibody (antibody, V domains shown, also called RabMAb 23; parent 23 rabbit antibody) VH: QEQLKESGGGLVTPGGTLTLTCTASGFSLSSDGMSWVRQAPGKGLEWIGYIYSGSSPYYANWAKGRFTISKTSSTTVDLKMTSLTTEDTATYFCARHGSGGGWYLDIWGPGTLVTVSS VL: AYDMIQTPASVEVAVGGTVTINCQASQTIGTNLAWYQQKPGQRPKLLIYAASTLPSGVSSRFKGSGSGTQFTLTISDVECSDAATYYCQQAYSVGNVDNAFGGGTEVVVK	EC50	µg/mL	0.0903
clone 68 rabbit anti-RANKL antibody (antibody, V domains shown) VH: QEQLKESGGGLVKPDESLTLTCTASGFSLSSNGMSWARQAPGKGLEWIGYIYAGSSPYYANWAKGRFTISKTSSTTVDLKVTSLTTEDTATYFCARHASGGGWYLAIWGPGTLVTVSL VL: DMIQTPASVEVAVGGTVTIGCQASQSIGSNLGWYQQKPGQPPKLLIYSASTLASGVSSRFKGSGSGTEFTLTISDVECDDAATYYCQQAYSVSNVDNAFGGGTEVVVK	EC50	µg/mL	0.185
clone 147 rabbit anti-RANKL antibody (antibody, V domains shown) VH: QSVEESGGRLVTPGTPQTLTCTVSGFSLSTDVVSWVRQAPGKGLEWIGYTWNGGATYYASWAKGRFTFSKTSTTVDLKITSPTTEDTATYFCARGYNGMDPWGPGTLVTVSS VL: DMTQTPASVEVAVGGTVTIKCQASQNIGSNLAWYQQKPGQPPKLLISKASTLASGVPSRFKGSGSGTEFTLAISDLECADAATYYCQQGYTTKNVVNPFGGGTEVVVK	EC50	µg/mL	0.0721

Let us move to another entry and its EC50.
Entry under review: clone 37 rabbit anti-RANKL antibody (antibody, V domains shown) VH: QSVEESGGRLVTPGTPLTLTCTVSGFSLSNDVMSWVRQAPGKGLEWIGYIWSGGSPYYANWAKGRFTISKSSSTTVDLKITSPTTEDTAAYFCARGFGSSGLNIWGPGTLVTVSL VL: DMTQTPASVEVAVGGTVTIKCQASQSIGSNLAWYQQKPGQSPKLLIYSASILASGVPSRFKGSGSGTQFTLTISGVQCDDAATYYCQQGYSVGNIDNAFGGGTEVVVK . Reported EC50?
0.137
